- experiment.notes: Oral administration to fasted beagles of compound (II) or (III) with ascorbic acid, plasma drug disposition parameters (Experimental Examples 5 and 6)
- condition.info: dog, in vivo, po, 3 mg/kg, Tmax mean ± SE, 3 mg/kg oral, none (control), n=2
measurement.kind: Tmax (min)
Express the result in min but write the number alone.

QUERY: Requested read-out: Tmax. Entry: Br.Oc1ccc(C2CNCc3c2ccc(O)c3O)cc1O (stereo not shown)
RESULT: 25.2

====

- experiment.notes: Oral administration to fasted beagles with L-cysteine or L-aspartic acid, plasma drug disposition parameters (Experimental Example 4)
- Assay type: in vivo
- condition.info: dog, plasma, po, 3 mg/kg, 3 mg/kg oral, none (control), n=4; read-out: Tmax mean ± SE
measurement.kind: Tmax (min)
Hi! Could you send only the number? It should be in min, unit omitted.

QUERY: Report Tmax for Oc1ccc([C@@H]2CNC[C@H]2c2cccc(O)c2Cl)cc1O (relative stereo) [compound (IX)] please.
RESULT: 43.8
